- target or test system: Transcription intermediary factor 1-alpha (Homo sapiens) (UniProt O15164)
- Sequence (O15164 whole entry): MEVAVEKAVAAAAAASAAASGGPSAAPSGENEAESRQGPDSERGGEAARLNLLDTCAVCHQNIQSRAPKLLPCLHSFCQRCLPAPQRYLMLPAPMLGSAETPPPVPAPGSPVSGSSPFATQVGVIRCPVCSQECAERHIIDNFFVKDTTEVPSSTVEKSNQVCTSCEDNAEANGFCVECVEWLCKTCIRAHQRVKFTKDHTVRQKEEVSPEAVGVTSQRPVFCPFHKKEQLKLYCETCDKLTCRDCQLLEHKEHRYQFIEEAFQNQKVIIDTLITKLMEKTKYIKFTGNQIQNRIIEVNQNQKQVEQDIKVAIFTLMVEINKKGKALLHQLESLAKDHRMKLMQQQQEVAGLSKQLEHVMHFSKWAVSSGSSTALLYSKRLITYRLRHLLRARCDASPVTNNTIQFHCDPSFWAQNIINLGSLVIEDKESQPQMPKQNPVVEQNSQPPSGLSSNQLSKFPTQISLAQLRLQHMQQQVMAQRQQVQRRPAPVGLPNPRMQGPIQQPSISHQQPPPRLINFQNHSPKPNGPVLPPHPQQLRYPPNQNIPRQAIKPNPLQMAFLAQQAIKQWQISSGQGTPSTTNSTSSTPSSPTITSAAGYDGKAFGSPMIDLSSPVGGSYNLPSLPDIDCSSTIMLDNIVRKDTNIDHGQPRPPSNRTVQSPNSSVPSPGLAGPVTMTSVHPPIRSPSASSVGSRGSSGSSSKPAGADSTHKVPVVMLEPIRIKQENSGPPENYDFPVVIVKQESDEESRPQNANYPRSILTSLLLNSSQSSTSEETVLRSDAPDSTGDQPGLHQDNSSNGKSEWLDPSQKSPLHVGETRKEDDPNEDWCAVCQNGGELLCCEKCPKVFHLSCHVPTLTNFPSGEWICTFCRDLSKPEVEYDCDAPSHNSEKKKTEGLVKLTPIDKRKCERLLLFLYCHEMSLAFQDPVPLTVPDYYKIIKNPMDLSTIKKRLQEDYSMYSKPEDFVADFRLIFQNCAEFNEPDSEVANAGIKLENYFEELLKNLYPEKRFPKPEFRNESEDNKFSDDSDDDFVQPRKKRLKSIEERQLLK
- condition label: Compound concentration 20.0 uM, Protein concentration 2.0 uM, Result type QC Liability

# compound, ΔTm, °C
records = [
    ("CN[C@@H](C)C(=O)N[C@H](C(=O)N1CCC[C@H]1C(=O)N[C@H]1c2ccccc2C[C@H]1OCC#CC#CCO[C@@H]1Cc2ccccc2[C@@H]1NC(=O)[C@@H]1CCCN1C(=O)[C@@H](NC(=O)[C@H](C)NC)C1CCCCC1)C1CCCCC1", -2.69),
    ("Cc1cc(=O)oc2cc(NC(=O)[C@H](Cc3ccc(I)cc3)NC(=O)[C@H]3N[C@@H]4CC[C@H]3C4)ccc12", 0.3),
    ("CCOC(=O)/N=C(\\N)c1ccc(OCc2cccc(COc3ccc(C(C)(C)c4ccc(OC(=O)OCC)cc4)cc3)c2)cc1", -0.45),
    ("Cc1cc(CN(CC(=O)Nc2ccc(Cl)cc2Cl)C2CCCCC2)ccc1OCC(=O)O", -0.29),
    ("CN(C)C(=O)c1cc2cnc(Nc3ccc(N4CCN(CCCCNC(=O)COc5cccc6c5C(=O)N(C5CCC(=O)NC5=O)C6=O)CC4)cn3)nc2n1C1CCCC1 (configuration not stated)", -1.79),
    ("Cc1ccc(NC(=O)c2ccc3c(c2)OCCO3)cc1NC(=O)c1ccc2nc(OCCN3CCCC3)ccc2c1", -0.86),
    ("CNc1oc(-c2cccc3ccccc23)nc1C#N", -0.7),
]

---

- target or test system: Bromodomain-containing protein 4 (Homo sapiens) (UniProt O60885)
- condition label: Compound concentration 20.0 uM, Protein concentration 2.0 uM, Result type QC Liability
readout name: ΔTm (°C)

# compound, measured result
data = [
    ("Nc1ncnc2c1c(COc1cccc(Cl)c1)nn2C1CCOCC1", -0.35),
    ("CC(C)S(=O)(=O)c1ccccc1Nc1nc(N[C@@H]2CCCN(CCCCCCCNC(=O)COc3cccc4c3C(=O)N(C3CCC(=O)NC3=O)C4=O)C2)ncc1Cl (some centres undefined)", 1.89),
    ("COC1(C#Cc2ccc(Cl)c(-c3ncc4c(n3)-c3sc(NC(C)=O)nc3CC4)c2)CCN(C)CC1", -2.24),
    ("CC(C)(C)c1cnc(CSc2cnc(NC(=O)C3CCNCC3)s2)o1", 0.24),
    ("CNCc1ccc(-c2cc(-c3nc(-c4ccc(S(=O)(=O)C(C)C)cc4)cnc3N)on2)cc1", -2.54),
    ("CNC(=O)c1ccc2c(c1)ncn2-c1ccc(CC(=O)OC(C)(C)C)cc1", -0.5),
    ("O=C(O)Cc1ccc(CCNS(=O)(=O)c2ccc(Cl)cc2)cc1", -1.74),
    ("O=C(NC1CCNCC1)c1n[nH]cc1NC(=O)c1c(Cl)cccc1Cl", -0.14),
    ("CCS(=O)(=O)c1cc2cc(C[C@](O)(CC(C)(C)c3ccc(F)cc3C(N)=O)C(F)(F)F)[nH]c2cn1", -2.16),
]

---

- target or test system: Bromodomain-containing protein 4 (Homo sapiens)
- condition label: Compound concentration 20.0 uM, Protein concentration 2.0 uM, Result type QC Liability
This listing pairs molecules with measured ΔTm.

# molecule, ΔTm / °C
measured = [
    ("CCCCNc1ncc2c(-c3ccc(CN4CCN(C)CC4)cc3)cn([C@H]3CC[C@H](O)CC3)c2n1", -3.24),
    ("CN1C(=O)c2c(nn(Cc3ccc(-c4cccc(F)n4)cc3)c2Nc2ccccc2)N2C1=N[C@@H]1CCC[C@@H]12", 1.34),
    ("Cc1cn([C@H](C)CC#N)c(=O)c2cc(Cn3nc(C(F)F)cc3Cl)nn12", -1.08),
    ("Cc1cc(-c2nc(-c3ccc(OC(F)(F)F)cc3)no2)nn1Cc1ccnc(N2CCN(C3CC3)CC2)c1", 0.31),
    ("Cn1c(C2(NC(=O)c3ccc(NCC4CCCCC4)nc3)CCC2)nc2ccc(/C=C/C(=O)O)cc21", 0.73),
    ("C1=Cc2ccccc2C(=C2CCN(CCCCc3nnn[nH]3)CC2)c2ccccc21", -12.7),
    ("COC[C@@H](C)N[C@H]1CC[C@H](Nc2cc(-c3cccc(NCC4(C#N)CCOCC4)n3)c(Cl)cn2)CC1", -0.6),
    ("CN1CCN(c2ccc(-n3cc(-c4ccncc4OCC4CCNCC4)cn3)cc2)CC1", -1.52),
    ("Cc1cc2c(-c3ccco3)cnc(N[C@@H]3CCN(C)C[C@H]3C(=O)NC3CCCCC3)c2[nH]c1=O", 13.3),
    ("C=CC(=O)Nc1cccc(C(=O)Nc2ccc(Nc3cc(-c4c(-c5ccc(F)cc5)nc(SC)n4C)ccn3)cc2)c1", -0.7),
    ("c1ccc2c(-c3coc4cc(-c5ccc(N6CCNCC6)cc5)cnc34)ccnc2c1", -1.89),
    ("CC(=O)c1c(C)c2cnc(Nc3ccn(C)n3)nc2n(C2CCCC2)c1=O", -0.76),
    ("O=C1Nc2ccc(C(=O)c3ccco3)cc2C1=Cc1cc(Cl)c(O)c(Cl)c1", 0.79),
    ("CC[C@H](NC(=O)[C@H](C)NC)C(=O)N1C[C@@H](O)C[C@H]1Cc1c(-c2[nH]c3cc(F)ccc3c2C[C@@H]2C[C@H](O)CN2C(=O)[C@H](CC)NC(=O)[C@H](C)NC)[nH]c2cc(F)ccc12", -3.47),
    ("CC1(C)C(=O)N([C@H]2CCc3c(O)cccc32)c2nc(Nc3cccc(CN4CCCC4)c3)ncc21", -2.45),
    ("CC1CNCCc2c1nc1ccnn1c2N1CC(C(=O)N2CCC(C)(C)C2)C1 (configuration not stated)", -3.66),
    ("CNC(=O)c1cccc(-c2ccc3c(N4CCOC[C@@H]4C)nc(N4CCOC[C@@H]4C)nc3n2)c1", -1.42),
]
